- Tested on: OXGR1 mutants (variant named in the endpoint)
- PROTOCOL_DETAILS: Calcium mobilization assay, OXGR1 mutants in HEK293;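 note: human OXGR1 variants transiently expressed in HEK293 cells, with intracellular calcium read out by Fluo-4 AM fluorescence, measured 24 h after transfection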
- EXPERIMENTAL_CONTEXT: OXGR1 R264A
Structures can show the parent of a compound that is named as a salt.
ASSAY_METRIC: EC50

What EC50 value was documented for this molecule, O=C(O)/C=C\C(=O)O [MA, maleate] ?
> 10 mM

What EC50 value was documented for this molecule, C=C(CC(=O)O)C(=O)O [ITA, itaconate] ?
> 1 mM

What EC50 value was documented for this molecule, O=C(O)CCC(=O)O [SUC, succinate] ?
> 10 mM
